Entries and their Maximum_MFI values follow.
tested_on: T1, human MSLN on OVCAR3 tumor cells (human, UniProt Q13421 296-598)
T1 construct: whole, on cells; also called human MSLN protein
experimental_protocol: FACS, OVCAR3 cells
Your answer should be a plain number; it is taken to be in MFI.

Completed entries (count: 3):
binder	experimental_readout	output_unit	endpoint_value
F2.39.3-H5 (scFv, not shown: small tags and cut ends, also called S009-F2.39.3 humanized antibody VH2 + VL1) scFv: EVQLVQSGAEVKKPGASVKVSCKASGYTFTNYWMHWVRQAPGQGLEWMGNINPSSGDSYYNERFMSRVTMTVDKSTSTAYMELSSLRSEDTAVYYCARSGGLWLAFWGQGTLVTVSSGGGGSGGGGSGGGGSDIVMTQSPDSLAVSLGERATINCKSSQTLLNSVSQNNYLAWYQQKPGQSPKLLIYFASTRESGVPDRFSGSGSGTDFTLTISSLQAEDVAVYYCQQHYRTPYTFGGGTKVEIK	Maximum_MFI	MFI	3140
F2.39.3-H6 (scFv, not shown: small tags and cut ends, also called S009-F2.39.3 humanized antibody VH2 + VL2) scFv: EVQLVQSGAEVKKPGASVKVSCKASGYTFTNYWMHWVRQAPGQGLEWMGNINPSSGDSYYNERFMSRVTMTVDKSTSTAYMELSSLRSEDTAVYYCARSGGLWLAFWGQGTLVTVSSGGGGSGGGGSGGGGSDIVMTQSPDSLAVSLGERATINCKSSQTLLNSVSQNNYLAWYQQKPGQSPTLLIYFASTRESGVPDRFSGSGSGTDFTLTISSLQAEDVAVYYCQQHYRTPYTFGGGTKVEIK	Maximum_MFI	MFI	4160
F2.23.12-H5 (scFv, not shown: small tags and cut ends, also called S009-F2.23.12 humanized antibody VH2 + VL1) scFv: EVQLVQSGAEVKKPGASVKVSCKASGYTFTNYWMHWVRQAPGQGLEWMGNINPSNGGPYYNERFRSRVTMTVDKSTSTAYMELSSLRSEDTAVYYCARPYYGSSYGYFDYWGQGTTVTVSSGGGGSGGGGSGGGGSDIQMTQSPSSLSASVGDRVTITCKASQDINKYIAWYQQKPGKAPKLLIHYTSELQPGVPSRFSGSGSGTDFTFTISSLQPEDIATYYCLQYANPLRTFGGGTKVEIK	Maximum_MFI	MFI	3340

[Q] If you can, please state the reported Maximum_MFI value of F2.39.3-H8 (scFv, not shown: small tags and cut ends, also called S009-F2.39.3 humanized antibody VH2 + VL4) scFv: EVQLVQSGAEVKKPGASVKVSCKASGYTFTNYWMHWVRQAPGQGLEWMGNINPSSGDSYYNERFMSRVTMTVDKSTSTAYMELSSLRSEDTAVYYCARSGGLWLAFWGQGTLVTVSSGGGGSGGGGSGGGGSDIVMTQTPLSLSVTPGQPASISCKSSQTLLNSVSQNNYLAWYQQKPGQSPTLLVYFASTRESGVPDRFSGSGSGTDFTLKISRVEAEDVGVYYCQQHYRTPYTFGGGTKVEIK .
[A] 4120
